Assay: binders from COS7 lysate, DM2A8 probe, primary screen, torsin A project, cell lysate, small-molecule microarray, fluorescence 635/667 (AID 1065)
Settings: higher = more signal, COS7 lysate expressing mutant human TOR1A
composite z-score vs 0.1: at or above is Y, below is N.

[[record]]
compound = "CCOC(=O)[C@H](Cc1ccccc1)NC(=O)CCC1CC(OC(=O)NCc2ccc3c(c2)OCO3)CC2(CCCC(COC(=O)NCCOC)O2)O1 (stereo partly drawn)"
label_value = "Y"

[[record]]
compound = "COC(=O)CC=C1c2ccccc2[C@H](OC)[C@H]1C"
label_value = "N"

[[record]]
compound = "CC(C)[C@@H](OCc1ccccc1)[C@H](C)C=NOC[C@@H](O)[C@H]1O[C@@H]2OC(C)(C)O[C@@H]2[C@H]1O"
label_value = "Y"

[[record]]
compound = "CSCC[C@@H]1NC(=O)CC=C[C@@H](C)COC(=O)[C@H](C)COC1=O"
label_value = "Y"

[[record]]
compound = "CO[C@@H]1COC(=O)[C@H](CCSC)NC(=O)CC=C[C@@H](C)COC(=O)[C@@H]2CCCN2C(=O)CC=C[C@H]1C"
label_value = "Y"

[[record]]
compound = "COC(=O)C1=C(C)N(Cc2ccccc2)C2=C3C(=O)OCC[C@@H]3[C@@](O)(C(=O)OC)C(=O)N2[C@@H]1c1ccccc1"
label_value = "N"

[[record]]
compound = "C[C@H]1CC[C@H]2C(=O)O[C@H](CO)CN2[C@@H]1c1ccc(Br)cc1"
label_value = "Y"

[[record]]
compound = "COC(=O)[C@H](C)NC(=O)CCC1CC(OC(=O)NCc2ccc3c(c2)OCO3)CC2(CCCC(COC(=O)NCCc3ccc(Cl)cc3)O2)O1 (stereo partly drawn)"
label_value = "N"

